Test system: Jurkat
assay_name: cell count relative to DMSO control (fraction of control); higher = more cells (less growth inhibition)
details: 48 h
test_readout: cell count
One number for each entry.

C[N+]1(C)[C@@H]2CC(OC(=O)[C@H](CO)c3ccccc3)C[C@H]1[C@@H]1O[C@@H]12 (stereo partly drawn) [Methscopolamine Bromide ((-)-Scopolamine Methyl Bromide)] (concentration: 25 µM) = 0.683

Quick request: cell count for each listed item, please.
1. CN1C(=O)CC(=O)N(c2ccccc2)c2cc(Cl)ccc21 [Clobazam] (concentration: 25 µM)
2. COc1cc([C@@H]2c3cc4c(cc3[C@H](O)[C@H]3COC(=O)[C@H]23)OCO4)cc(OC)c1OC [Podofilox] (concentration: 25 nM)

Marked response:
[0.64, 0.0355]

====

Test system: Jurkat
assay_name: cell count relative to DMSO control (fraction of control); higher = more cells (less growth inhibition)
details: 48 h
Counter-ions that a name gives are not always drawn.
test_readout: cell count
Answers are plain numbers.

NCCCNCCSP(=O)(O)O [Amifostine] (concentration: 25 µM) = 0.8
CN1C[C@H](C(=O)N[C@]2(C)O[C@@]3(O)[C@@H]4CCCN4C(=O)[C@H](Cc4ccccc4)N3C2=O)C[C@@H]2c3cccc4[nH]cc(c34)C[C@H]21 [Dihydroergotamine Mesylate] (concentration: 25 µM) = 0.297

Exam item: Tell me the measured cell count of O=C1CC[C@@]2(O)[C@H]3Cc4ccc(O)c5c4[C@@]2(CCN3CC2CC2)[C@H]1O5 [Naltrexone·HCl] (concentration: 2.5 µM) , please.
Marked response: 0.399

====

Tested on: Jurkat
assay_name: cell count relative to DMSO control (fraction of control); higher = more cells (less growth inhibition)
details: 48 h
Counter-ions that a name gives are not always drawn.
Record 1 (yes) whenever cell count is at 0.8 or higher; record 0 (no) when lower.

COc1ccc2c(c1)[C@]13CCCC[C@@H]1[C@H](C2)N(C)CC3 [Dextromethorphan] (concentration: 25 µM) = 1 (yes)
CC1C=CC=CCCC=CC=CC=CC=CC(OC2OC(C)C(O)C(N)C2O)CC2OC(O)(CC(O)C(O)CCC(O)CC(O)CC(O)CC(=O)OC(C)C(C)C1O)CC(O)C2C(=O)O (stereo unspecified) [Nystatin] (concentration: 25 µM) = 0 (no)
Cl[C@H]1[C@H](Cl)[C@@H](Cl)[C@@H](Cl)[C@H](Cl)[C@H]1Cl [Lindane] (concentration: 25 µM) = 0 (no)

Exam item: Could you please find out whether CN(C)[C@@H]1C(=O)C(C(N)=O)=C(O)[C@@]2(O)C(=O)C3=C(O)c4c(O)cccc4[C@@](C)(O)[C@H]3[C@H](O)[C@@H]12 [Oxytetracycline·HCl] (concentration: 25 µM) has cell count that meets 0.8 or exceeds it?
Marked response: 1 (yes)

Exam item: Could you verify whether the entry C=CCN1CC[C@]23c4c5ccc(O)c4O[C@H]2C(=O)CC[C@@]3(O)[C@H]1C5 [Naloxone·HCl] (concentration: 25 µM) shows cell count of no less than 0.8?
Marked response: 1 (yes)

====

Tested on: Jurkat
assay_name: cell count relative to DMSO control (fraction of control); higher = more cells (less growth inhibition)
details: 48 h
Counter-ions that a name gives are not always drawn.
Consider the following compounds; for each one, report its cell count.
Numbers only.

Please review the entries below; each comes with its answer.
CC(=O)O[C@H]1C[C@@H]2CC[C@@H]3[C@H](CC[C@@]4(C)[C@H]3C[C@H]([N+]3(C)CCCCC3)[C@@H]4OC(C)=O)[C@@]2(C)C[C@@H]1[N+]1(C)CCCCC1 [Pancuronium·2Br] (concentration: 25 µM) = 1.12
O=C(O[C@H]1C[C@H]2CC[C@@H](C1)[N+]21CCCC1)C(O)(c1ccccc1)c1ccccc1 [Trospium Chloride] (concentration: 25 µM) = 0.982
Cc1c(N)nc(C(CC(N)=O)NCC(N)C(N)=O)nc1C(=O)NC(C(=O)NC(C)C(O)C(C)C(=O)NC(C(=O)NCCc1nc(-c2nc(C(=O)NCCC[S+](C)C)cs2)cs1)C(C)O)C(O[C@@H]1O[C@@H](CO)[C@@H](O)[C@H](O)[C@@H]1O[C@H]1O[C@H](CO)[C@@H](O)[C@H](OC(N)=O)[C@@H]1O)c1cnc[nH]1 (some centres undefined) [Bleomycin Sulfate] (concentration: 2.5 µM) = 0.297

--- query ---
Exam item: Fill in: cell count of COc1ccc(C(CN(C)C)C2(O)CCCCC2)cc1 (centres undefined) [Venlafaxine·HCl] (concentration: 25 µM) is ___
Marked response: 0.498

====

Tested on: Jurkat
assay_name: cell count relative to DMSO control (fraction of control); higher = more cells (less growth inhibition)
details: 48 h
Counter-ions that a name gives are not always drawn.
Consider the following compounds; for each one, report its cell count.
Numbers only.

Use these answered entries as a reference point.
C#CCN(C)[C@H](C)Cc1ccccc1 [Selegiline·HCl] (concentration: 25 µM) = 0.711
O=C1CN=C(c2ccccc2Cl)c2cc([N+](=O)[O-])ccc2N1 [Clonazepam] (concentration: 25 µM) = 0.659
CCOC(=O)CC(SP(=S)(OC)OC)C(=O)OCC (centres undefined) [Malathion] (concentration: 25 µM) = 1.06
O=C1Nc2ccc(Cl)cc2C(c2ccccc2)=NC1O (centres undefined) [Oxazepam] (concentration: 25 µM) = 0.645

// input: 2 compounds below; output: cell count for each
1. COc1cc2c(c(OC)c1OC)-c1ccc(OC)c(=O)cc1[C@@H](NC(C)=O)CC2 [Colchicine] (concentration: 25 nM)
2. C[N+]1(C)CCCC(OC(=O)C(O)(c2ccccc2)c2ccccc2)C1 (centres undefined) [Mepenzolate Bromide] (concentration: 25 µM)

Marked response:
0.071
1.15

====

Tested on: Jurkat
assay_name: mean cell size (FSC-A) relative to DMSO control (fraction of control); higher = larger cells
details: 48 h
Where a name gives a salt, the structure may show the parent alone.
Kindly supply the reported mean cell size values for the records listed here.
One number for each entry.

Each molecule below has a reported value. Please supply its mean cell size.
1. COc1cc2c(c(OC)c1OC)-c1ccc(OC)c(=O)cc1[C@@H](NC(C)=O)CC2 [Colchicine] (concentration: 25 nM)
2. O=P1(NCCCl)OCCCN1CCCl (stereo not drawn) [Ifosfamide] (concentration: 25 µM)
3. O=c1[nH]c2ccccc2n1C1CCN(CCCC(c2ccc(F)cc2)c2ccc(F)cc2)CC1 [Pimozide] (concentration: 2.5 µM)
4. O=C1CC[C@@]2(O)[C@H]3Cc4ccc(O)c5c4[C@@]2(CCN3CC2CC2)[C@H]1O5 [Naltrexone·HCl] (concentration: 2.5 µM)
5. CCCC(C)(COC(N)=O)COC(N)=O [Meprobamate (Schedule Iv)] (concentration: 25 µM)
6. N.N.[Cl][Pt][Cl] [Cisplatin (Cis-Diamineplatinum(Ii) Dichloride )] (concentration: 25 µM)
7. C[N+]1(C)[C@@H]2CC(OC(=O)[C@H](CO)c3ccccc3)C[C@H]1[C@@H]1O[C@@H]12 (stereo partly drawn) [Methscopolamine Bromide ((-)-Scopolamine Methyl Bromide)] (concentration: 25 µM)
8. NC(=O)C[S+]([O-])C(c1ccccc1)c1ccccc1 (stereo not drawn) [Modafinil (Schedule Iv)] (concentration: 25 µM)

Marked response:
1: 0.967; 2: 0.938; 3: 1.08; 4: 0.985; 5: 1.08; 6: 1.04; 7: 1.05; 8: 0.968

The following molecules each have a reported value; give each one's mean cell size.
1. CC(C)C[C@H]1C(=O)N2CCC[C@H]2[C@]2(O)O[C@](NC(=O)[C@@H]3C=C4c5cccc6[nH]c(Br)c(c56)C[C@H]4N(C)C3)(C(C)C)C(=O)N12 [Bromocriptine Mesylate] (concentration: 25 µM)
2. COC[C@@H](NC(C)=O)C(=O)NCc1ccccc1 [Lacosamide] (concentration: 25 µM)
3. CN(C)[C@@H]1C(=O)C(C(N)=O)=C(O)[C@@]2(O)C(=O)C3=C(O)c4c(O)cccc4[C@@](C)(O)[C@H]3[C@H](O)[C@@H]12 [Oxytetracycline·HCl] (concentration: 25 µM)

Marked response:
1: 0.939; 2: 0.927; 3: 0.894

For the 2 molecules below, give their mean cell size values.
1. CN1[C@@H]2CC[C@H]1C[C@@H](OC(=O)C(CO)c1ccccc1)C2 (stereo partly drawn) [Atropine Sulfate Monohydrate] (concentration: 25 µM)
2. COc1cccc(C2(O)CCCCC2CN(C)C)c1 (stereo not drawn) [Tramadol·HCl] (concentration: 25 µM)

Marked response:
1: 0.974; 2: 0.938

====

Task for the reader: assign each of the following compounds its reported cell count.
System: Jurkat
assay_name: cell count relative to DMSO control (fraction of control); higher = more cells (less growth inhibition)
details: 48 h
Where a name gives a salt, the structure may show the parent alone.
Give bare numbers.

Use the examples below as a reference point.
CN(C)[C@@H]1C(=O)C(C(N)=O)=C(O)[C@@]2(O)C(=O)C3=C(O)c4c(O)cccc4[C@@](C)(O)[C@H]3C[C@@H]12 [Tetracycline] (concentration: 25 µM) = 0.556
Oc1ccc2c3c1O[C@H]1[C@@H](O)CC[C@@]4(O)[C@@H](C2)N(CC2CCC2)CC[C@]314 [Nalbuphine·HCl Dihydrate] (concentration: 25 µM) = 0.995

Okay, now this compound:
Exam item: Any idea what its cell count is? The compound is N.N.[Cl][Pt][Cl] [Cisplatin (Cis-Diamineplatinum(Ii) Dichloride )] (concentration: 25 µM)
Marked response: 0.895

FYI, the data here is from the supplement of paper PMC4709259.
